# assay system: 5-Lipoxygenase enzyme (10,000 g supernatant from RBL-1 cells) (Rattus norvegicus, UniProt P12527)
# Construct: 5-Lipoxygenase enzyme was prepared as a 10,000 g supernatant from RBL-1 cells; endogenous in cells; host or cells: RBL-1 cells (10,000 g supernatant, method of Jakschik)
# Sequence (P12527 1-673): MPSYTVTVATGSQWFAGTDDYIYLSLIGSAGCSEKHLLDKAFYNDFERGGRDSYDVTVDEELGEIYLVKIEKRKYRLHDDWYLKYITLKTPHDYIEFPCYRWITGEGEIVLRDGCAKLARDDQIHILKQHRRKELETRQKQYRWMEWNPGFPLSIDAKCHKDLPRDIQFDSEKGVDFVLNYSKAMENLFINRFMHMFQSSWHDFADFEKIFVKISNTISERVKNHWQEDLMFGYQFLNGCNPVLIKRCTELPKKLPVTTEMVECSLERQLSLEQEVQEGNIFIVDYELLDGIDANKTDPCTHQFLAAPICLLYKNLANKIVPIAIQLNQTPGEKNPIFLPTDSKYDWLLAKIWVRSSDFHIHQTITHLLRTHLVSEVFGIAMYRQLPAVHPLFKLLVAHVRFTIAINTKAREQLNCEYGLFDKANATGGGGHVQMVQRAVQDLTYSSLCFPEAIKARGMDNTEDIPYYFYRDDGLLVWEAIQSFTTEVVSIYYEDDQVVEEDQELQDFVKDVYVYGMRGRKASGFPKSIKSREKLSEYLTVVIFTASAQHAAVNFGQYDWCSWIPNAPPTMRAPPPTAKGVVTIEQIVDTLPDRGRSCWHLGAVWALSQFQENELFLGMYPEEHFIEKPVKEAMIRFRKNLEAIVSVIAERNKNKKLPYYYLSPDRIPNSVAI
# experiment notes: Inhibition of 5-Lipoxygenase Activity (Method B)
# Assay type: biochemical
# test context: decrease in formation of 5-HETE and 5,12-diHETE relative to control
Tick met if inhibition at 20 µM is 90% or greater. Tick not met if inhibition at 20 µM is less than 90%.

{"columns": ["mol smiles", "label value"],
 "data": [
  ["COC(=O)c1sc(-c2ccc(Cl)cc2)cc1NC(=O)C=Cc1ccc(OC(C)=O)c(OC(C)=O)c1", "not met"],
  ["COc1ccc(C=CC(=O)Nc2ccsc2C(=O)O)cc1OC", "not met"],
  ["COc1cc(C=CC(=O)Nc2ccsc2C(=O)O)ccc1O", "not met"],
  ["COC(=O)c1sccc1NC(=O)C=Cc1ccc(O)c(O)c1", "met"],
  ["COC(=O)c1sccc1NC(=O)C=Cc1ccc(OC)c(OC)c1", "not met"],
  ["CCOC(=O)c1cccnc1NC(=O)C=Cc1ccc(O)c(O)c1", "met"],
  ["O=C(C=Cc1ccc(O)c(O)c1)Nc1ncccc1C(=O)O", "not met"],
  ["CCOC(=O)c1c[nH]nc1NC(=O)C=Cc1ccc(O)c(O)c1", "met"],
  ["COC(=O)c1sccc1NC(=O)C=Cc1ccc(O)c(OC)c1", "met"]
]}

====

# Tested on: Phospholipase A2 (Naja naja venom, Sigma)
# experiment notes: Inhibition of Phospholipase A2 Activity (Method A)
# Format: biochemical
# test context: inhibition of arachidonic acid release, tested in triplicate
# Procedure: Inhibition of Phospholipase A2 Activity Enzyme: Phospholipase A2 (Naja naja venom, Sigma) […] The lower organic phase was removed and stored under N2 at-20 °C until analysed. […] The areas of interest were cut from the plates and radioactivity determined by liquid scintillation counting. […] Calculation: The radioactivity of the arachidonic acid is expressed as a percentage of the total dpm cut from the plate. […] The mean of the triplicate samples was calculated giving z + standard deviation%.
Tick Y if Phospholipase A2 Inhibition at 20µM (%) is 40% or greater. Tick N if Phospholipase A2 Inhibition at 20µM (%) is less than 40%.

{"columns": ["molecule", "assay system", "label value"],
 "data": [
  ["COC(=O)c1sccc1NC(=O)C=Cc1ccc(OC)c(OC)c1 [Example 6]", "Phospholipase A2 (Naja naja venom, Sigma)", "N"],
  ["CCOC(=O)c1c(NC(=O)C=Cc2ccc(O)c(O)c2)sc2c1CCCC2 [Example 11]", "Phospholipase A2 (Naja naja venom, Sigma)", "Y"],
  ["CCOC(=O)c1cccnc1NC(=O)C=Cc1ccc(O)c(O)c1 [Example 10]", "Phospholipase A2 (Naja naja venom, Sigma)", "N"],
  ["COC(=O)c1sccc1NC(=O)C=Cc1ccc(O)c(OC)c1 [Example 8]", "Phospholipase A2 (Naja naja venom, Sigma)", "N"],
  ["COc1cc(C=CC(=O)Nc2ccsc2C(=O)O)ccc1O [Example 13]", "Phospholipase A2 (Naja naja venom, Sigma)", "N"],
  ["CCOC(=O)c1c[nH]nc1NC(=O)C=Cc1ccc(O)c(O)c1 [Example 9]", "Phospholipase A2 (Naja naja venom, Sigma)", "Y"],
  ["COC(=O)c1sccc1NC(=O)C=Cc1ccc(O)c(O)c1 [Example 7]", "Phospholipase A2 (Naja naja venom, Sigma)", "Y"],
  ["O=C(C=Cc1ccc(O)c(O)c1)Nc1ccsc1C(=O)O [Example 12]", "Phospholipase A2 (Naja naja venom, Sigma)", "N"],
  ["COc1ccc(C=CC(=O)Nc2ccsc2C(=O)O)cc1OC [Example 15]", "Phospholipase A2 (Naja naja venom, Sigma)", "N"]
]}
